System: MS2 coat protein
testSummary: apparent KD of MS2 coat protein; designed switch direction (-1 OFF switch, 1 ON switch): 1; higher = weaker reporter binding
recordedConditions: input ligand: none
Each entry gets FALSE if its apparent KD of MS2 coat protein stays under 70 nM, and TRUE if its apparent KD of MS2 coat protein is 70 nM or above.

Here are 8 sequences together with their reported answers.
GCCAACUCAUGAGGAUAUGGCACCUUAUUGGUGCCAGAAGGCAUGUCUAUUGACAUGAGGAUCACCCAUGUAUUAUUGUUGGCA [Fiskers NG1ss - 24] (Eterna round: R96, puzzle: Same State NG 1); TRUE
GGCUGCGUUGUGAAGGAUAUCCGCGUCUGGACAUGAGGAUCACCCAUGUAUGCUUGGAUCGUGCCGGAGAAGGUCACGAAUGAUU [JR_SS002_Sub1213] (Eterna round: R96, puzzle: Same State 2); FALSE
UGUACCUUCACAGGAUAUCAUGCGAAAAUUGCGUGAGAAGGGUGAAUACUGUCUUUCUAAGAGCACAUGAGGAUCACCCAUGUA [SameState NG1 #59] (Eterna round: R96, puzzle: Same State NG 1); TRUE
AGAGGAGGAGCAGGAUAUGCGAAGAAGAAAGAGGUAGAAGGGCUCAUGGGAUGACAUGAGGAUCACCCAUGUACCGCCCGAGGA [AK SSNG1-V2-8.1] (Eterna round: R96, puzzle: Same State NG 1); TRUE
UUAUUAUUUACAUGAGGAUCACCCAUGUUUUUAUGUCAGAGAUAGGAUAUAGUAGUCUCGUUUUACUAGAAGGAUCUUUUUAUU [JR_SSNG3_Sub084] (Eterna round: R96, puzzle: Same State NG 3); FALSE
GCUACCAUUGAUGCCUACAUGAGGAUCACCCAUGUAUGUAGGCAGGAUAUCGAUUGCUUUGCGAUCGAGAAGGGCUUAGGUAGC [JL SSNG3 1.31] (Eterna round: R96, puzzle: Same State NG 3); TRUE
UGUUGUUAAUUAGGAUAUGGUCACAUGAGGAUCACCCAUGUAAUGUCGAUGCUAUGUGGAUUUGAUCAGAAGGAAUGGCUAACA [SameState NG2 #97] (Eterna round: R96, puzzle: Same State NG 2); TRUE
AUUAUUAAUGCAGGAUAUGAUUAACAUGAGGAUCACCCAUGUGGUGUUGUGAGUAAGGAGAGUGAUCAGAAGGGCAUUUUUUUG [JMF's solution 19] (Eterna round: R96, puzzle: Same State NG 2); TRUE

Prompt line: Decide: apparent KD of MS2 coat protein of GAGGGCGAAAGCAACAUGAGGAUCACCCAUGUCCUCGGAGGGCAGGAUAUCCGGCGGUAGCCGAAGGAGAAGGGUCGAAAAGAA [AK SSNG3-V2-34] (Eterna round: R96, puzzle: Same State NG 3) >= 70 nM?
Response line: FALSE

====

System: MS2 coat protein
testSummary: apparent KD of MS2 coat protein; designed switch direction (-1 OFF switch, 1 ON switch): 1; higher = weaker reporter binding
recordedConditions: Eterna round: R95; input ligand: FMN 200 uM
parameter: apparent KD of MS2 coat protein (nM)
One number for each entry, in nM.

Give apparent KD of MS2 coat protein for all sequences that follow.
1. UGGUAACAUGAGGAUCACCCAUGUCAAAUGAAUCUAGGAUAUGGGAAAGGAGAAGAGAAACCAGAAGGAGAGGUUG [Altered State 1-14 - Jieux - Same State 1] (puzzle: Same State 1)
2. GGUUUAGUCGAUUGCCGUUGCACUCGAAAACAUGAGGAUCACCCAUGUUUGGGACAAGCUUUGCUCCUCGUCUUUCC [Sous] (puzzle: Sensor for hsa-mir-208a)
3. AGGAAGGAGACUGAGGAUAUCGUUGAAAAGACAUGAGGAUCACCCAUGUGUAUAGGAUUGGAGAACGAGAAGGCAGAGGAGUGGA [JR_SS2_Sub044] (puzzle: Same State 2)

Response line:
1: 179; 2: 240; 3: 29.2

Hi! Can you tell me apparent KD of MS2 coat protein for each of these sequences?
1. AGUCCAGCCUGAGCUGGACAAAAGCAUGUACAUGAGGAUCACCCAUGUCAUGUAUAAGCUUUUUGCUCGUCUUAAAA [Zipper 46 - 10] (puzzle: Sensor for hsa-mir-208a)
2. AUUAAACAUGAGGAUCACCCAUGUCAACAAAGUCGAGGAUAUGGGCAAAUAUUAUAAUAACCAGAAGGCGAAUAAU [salish99_ss1_r3_082] (puzzle: Same State 1)

Response line:
[18.9, 27.4]
